Where do the numbers come from? From paper PMC5540273.

system: NEK5; details: concentration: 1 μM, replicates: in singlicate; n = 1;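 note: KINOMEscan kinase panel screen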
property: %Inh

- CCn1c(-c2ccccc2)nc2cnccc21: 0%
- COc1ccc(Nc2nccc(N3CCC(NC(=O)C(C)c4ccc(Cl)cc4)CC3)n2)cc1 (stereo not shown): 54%
- Cn1cncc1-c1cc2c(Nc3ccc(OCc4ccccc4)cc3)ncnc2cn1: 26%
- COC(=O)c1cccc(NC(=O)NC2CCN(c3ccnc(Nc4ccc(F)cc4)n3)C2)c1 (stereo not shown): 10%
- O=C1NC(=O)C(c2ccc(Cl)cc2)=C1Nc1ccc(O)cc1: 0%
- COc1ccc(-c2coc3ccc(-c4nnc(C)o4)cc23)cc1: 0%
- Nc1cccc(-c2ccc3c(N)n[nH]c3c2)n1: 9%
- Cc1nccc(-c2c(-c3ccc(F)cc3)ncn2CCCN2CCOCC2)n1.Cl: 16%
- c1ccc(-c2ccnc3[nH]ccc23)cc1: 8%
- COc1cccc(C2=C(Nc3cc(Cl)c(O)c(Cl)c3)C(=O)NC2=O)c1: 7%
- Nc1nccc(-c2c(-c3ccc(F)cc3)ncn2C2CCN(Cc3ccccc3)CC2)n1: 1%
- CS(=O)(=O)CCNCc1nc(-c2ccc3ncnc(Nc4ccc5c(cnn5Cc5ccccc5)c4)c3c2)cs1.Cl.Cl: 0%
- CC(C)c1ccc(O)cc1Nc1ccnc2ccc(C(F)(F)F)cc12: 0%
- CCn1c(-c2c(N)noc2C)nc2cnccc21: 0%
- CNCc1ccc2nc(NC(=O)c3ccc(C(C)(C)C)cc3)cn2c1: 0%
- CC(C)c1cc(-c2ccc3c(N)n[nH]c3c2)nc(N)n1: 0%

---

tested on: PIP5K1C; conditions: concentration: 1 μM, replicates: in singlicate; n = 1
property: %Inh (%)

• O=C(Nc1n[nH]c2nc(-c3cccs3)c(Br)cc12)C1CCCC1 = 23
• Cl.Cl.Cl.N#Cc1ccc(CCNc2nccc(-c3cccc(CN4CCNCC4)c3)n2)cc1 = 0
• Cc1ccccc1-c1cc(-c2c[nH]nc2-c2ccccn2)ccn1 = 39
• COC(=O)c1cccc(NC(=O)NC2CCN(c3ccnc(Nc4ccc(OC)cc4)n3)C2)c1 (stereo not drawn) = 10
• COc1cccc(NC(=O)Nc2ccc(C)c(-c3ccc(C(=O)Nc4ccncc4)cc3)c2)c1 = 0
• NS(=O)(=O)c1cccc(N/C=C2\C(=O)Nc3ccc(S(=O)(=O)Cc4c(Cl)cccc4Cl)cc32)c1 = 0
• CNCc1ccc2nc(NC(=O)c3ccc(C(C)(C)C)cc3)cn2c1 = 17
• COc1ccc(Nc2nccc(NCCNC(=O)Nc3cc(C)ccc3C)n2)cc1 = 18
• Nc1ncnc2occ(-c3ccc4c(c3)CCN4C(=O)Cc3cc(F)ccc3F)c12 = 52

---

system: TBK1; details: concentration: 1 μM, replicates: in singlicate; n = 1
property: %Inh (%)

- CNC(=O)c1ccc(C)c(-n2c(C)cc(OCc3ccc(F)cc3F)c(Br)c2=O)c1: 0
- CC(=O)c1cccc(NC(=O)NC2CCN(c3ccnc(Nc4ccc(F)cc4)n3)C2)c1 (stereo not shown) [GSK1379710]: 18
- Cl.Cl.Cl.N#Cc1ccc(CCNc2nccc(-c3cccc(CN4CCNCC4)c3)n2)cc1 [GSK2137462]: 19
- COC(=O)c1cccc(NC(=O)NC2CCN(c3ccnc(Nc4ccc(F)cc4)n3)C2)c1 (stereo not shown) [GSK1379725]: 0
- Cc1ccc(NC(=O)Nc2ccccc2F)cc1-c1ccc(C(=O)Nc2ccncc2)cc1 [GSK1398477]: 13
- Cc1c(Cn2c(C)c(C)n3c(=O)cc(N4CCOCC4)nc23)cccc1C(F)(F)F [GSK2328680]: 9
- CCn1c(-c2ccccc2)nc2cnccc21 [SB-733416]: 0
- O=c1cc(N2CCOCC2)nc2n(Cc3ccccc3F)ccn12 [GSK2297428]: 15
- COc1ccc(-c2coc3ccc(-c4nnc(C)o4)cc23)cc1: 30
- Cc1c(Cn2c3ccccc3n3c(=O)cc(N4CCOCC4)nc23)cccc1C(F)(F)F [GSK2306394]: 13

---

system: AKT1; details: concentration: 1 μM, replicates: in singlicate; n = 1
property: %Inh (%)

* Nc1ncnc2occ(-c3ccc4c(c3)CCN4C(=O)Cc3cc(F)ccc3F)c12 [GSK2645446] | 0
* O=C(Nc1n[nH]c2cc(-c3ccsc3)ccc12)C1CC1 [SB-732932] | 0
* O=c1cc(N2CCOCC2)nc2n(Cc3ccccc3F)ccn12 [GSK2297428] | 0
* Fc1ccc(-c2nn3cccc(F)c3c2-c2ccncc2)cc1 [GW475620] | 0
* COC(=O)C(Cc1ccccc1)NC(=O)NC1CCN(c2ccnc(Nc3ccc(F)cc3)n2)C1 (stereo not drawn) [GSK1379714] | 0
* Fc1ccc(-c2nc[nH]c2-c2ccncc2)cc1 [SB-217360] | 4
* CC(C)c1cc(-c2ccc3c(N)n[nH]c3c2)nc(N)n1 [GSK2250882] | 0
* CN1c2ccc(-c3ccc(C(N)=O)cc3)cc2-c2[nH]ncc2S1(=O)=O | 3
* CCc1ccc(-c2ccc3c(c2)-c2n[nH]cc2S(=O)(=O)N3C)cc1 | 3

---

Here, each record is paired with measured %Inh data.
system: GRK4; details: concentration: 1 μM, replicates: in singlicate; n = 1
property: %Inh (%)

• O=C1NC(=O)C(c2ccc(Cl)cc2)=C1Nc1ccc(O)cc1 = 0
• Nc1cccc(-c2ccc3c(N)n[nH]c3c2)n1 = 13
• Cn1cnc2c(N)ncnc21 = 21
• CNCc1ccc2nc(NC(=O)c3ccc(C(C)(C)C)cc3)cn2c1 = 0
• Fc1ccc(-c2nn3cccc(F)c3c2-c2ccncc2)cc1 = 26

---

Listing: %Inh of selected compounds
test system: CAMK2A; details: concentration: 1 μM, replicates: in singlicate; n = 1
property: %Inh (%)

* CCCCc1nn2ncccc2c1-c1ccnc(NC2CC2)n1 [GW684374] | 0
* Fc1ccc(-c2nc3n(c2-c2ccncc2)CCS3)cc1 [GI98581] | 0
* O=C(Nc1n[nH]c2cc(-c3ccsc3)ccc12)C1CC1 [SB-732932] | 20
* O=C(Nc1n[nH]c2nc(-c3cccs3)c(Br)cc12)C1CCCC1 [SB-743341] | 9
* CNc1nc(-c2ccc3c(N)n[nH]c3c2)cc(N2C[C@@H](C(=O)Nc3ccccc3)CC[C@H]2C)n1 [GSK2298859] | 87
* Cc1ccc(NC(=O)Nc2ccccc2)cc1-c1ccc(C(=O)Nc2ccncc2)cc1 [GSK1398471] | 0
* Nc1nccc(-c2c(-c3ccc(F)cc3)ncn2C2CCN(Cc3ccccc3)CC2)n1 [SB-219980] | 0
* CN1c2ccc(-c3ccc(C(N)=O)cc3)cc2-c2[nH]ncc2S1(=O)=O | 11
* Cn1cncc1C(=O)NC1CCN(c2ccnc(Nc3ccc(F)cc3)n2)C1 (stereo not drawn) [GSK1379717] | 0

---

system: ANKK1; conditions: concentration: 1 μM, replicates: in singlicate; n = 1
property: %Inh (%)

- COc1ccc(Nc2nccc(N3CCC(NC(=O)C(C)c4ccc(Cl)cc4)C3)n2)cc1 (stereo not drawn): 0
- Cc1ccc(NC(=O)Nc2ccc(Cl)c(C(F)(F)F)c2)cc1-c1ccc(C(=O)Nc2ccncc2)cc1: 15
- COc1ccc(CSc2nnc(-c3ccc4nccn4c3)o2)cc1C(F)(F)F: 0
- COc1cccc(C2=C(Nc3cc(Cl)c(O)c(Cl)c3)C(=O)NC2=O)c1: 0
- COc1ccc(Nc2nccc(-c3ccc(NC(=O)c4cc5cc(F)ccc5[nH]4)cc3)n2)cc1: 0
- O=c1cc(N2CCOCC2)nc2n(Cc3cccc(Cl)c3Cl)c3ccccc3n12: 6
- Fc1ccc(-c2nc[nH]c2-c2ccncc2)cc1: 0
- Nc1cccc(-c2ccc3c(N)n[nH]c3c2)n1: 17
- Cl.Cl.Cl.N#Cc1ccc(CCNc2nccc(-c3cccc(CN4CCNCC4)c3)n2)cc1: 15
- CCn1c(-c2ccccc2)nc2cnccc21: 0
- Cc1ccccc1Cn1ccn2c(=O)cc(N3CCOCC3)nc12: 10
- COc1ccc(Nc2nccc(NCCNC(=O)Nc3cc(C)ccc3C)n2)cc1: 0
- CCCCc1nn2ncccc2c1-c1ccnc(NC2CC2)n1: 8
- CN1c2ccc(-c3ccc(C(N)=O)cc3)cc2-c2[nH]ncc2S1(=O)=O: 0
- Cc1ccc(-c2nc(Nc3ccncc3)c3ccccc3n2)s1: 65
- Cc1nccc(-c2c(-c3ccc(F)cc3)ncn2CCCN2CCOCC2)n1.Cl: 33
- CNc1cc(-c2ccc3c(N)n[nH]c3c2)nc(N)n1: 10
- COC(=O)C(Cc1ccccc1)NC(=O)NC1CCN(c2ccnc(Nc3ccc(F)cc3)n2)C1 (stereo not drawn): 0
- COC(=O)c1cccc(NC(=O)NC2CCN(c3ccnc(Nc4ccc(F)cc4)n3)C2)c1 (stereo not drawn): 0
- COc1cc2ncnc(Nc3cccc(Br)c3)c2cc1OC.Cl: 8
- CNC(=O)c1ccc(C)c(-n2c(C)cc(OCc3ccc(F)cc3F)c(Br)c2=O)c1: 0
- CSc1ccc(-c2nc3n(c2-c2ccncc2)CCC3)cc1: 0
- c1ccc(-c2ccnc3[nH]ccc23)cc1: 0
- O=C1NC(=O)C(c2ccc(Cl)cc2)=C1Nc1ccc(O)cc1: 0
- Nc1ncnc2occ(-c3ccc4c(c3)CCN4C(=O)Cc3cc(F)ccc3F)c12: 3
- CS(=O)(=O)CCNCc1nc(-c2ccc3ncnc(Nc4ccc5c(cnn5Cc5ccccc5)c4)c3c2)cs1.Cl.Cl: 0
- NS(=O)(=O)c1cccc(N/C=C2\C(=O)Nc3ccc(S(=O)(=O)Cc4c(Cl)cccc4Cl)cc32)c1: 0
- Cn1cncc1-c1cc2c(Nc3ccc(OCc4ccccc4)cc3)ncnc2cn1: 0
- COc1cccc(NC(=O)Nc2ccc(C)c(-c3ccc(C(=O)Nc4ccncc4)cc3)c2)c1: 10
- COc1ccc(CSc2nnc(-c3ccc4c(c3)CCO4)o2)cc1: 0
- CC(C)c1ccc(O)cc1Nc1ccnc2ccc(C(F)(F)F)cc12: 0
- CC[C@@H]1CO[C@H](C(=O)Nc2ccccc2)CN1c1cc(-c2ccc3c(N)n[nH]c3c2)nc(NC)n1: 0
- Cc1c(Cn2c3ccccc3n3c(=O)cc(N4CCOCC4)nc23)cccc1C(F)(F)F: 0
- Cn1cnc2c(N)ncnc21: 0
- O=C(Nc1n[nH]c2nc(-c3ccco3)c(Br)cc12)C1CCN(Cc2ccccc2)C1.O=C(O)[C@H](O)[C@@H](O)C(=O)O (stereo not drawn): 11
- Cc1ccc(NC(=O)c2ccc(Cl)cc2)cc1-c1ccc(C(=O)Nc2ccncc2)cc1: 0
